Reference source for all entries: the RNAGym collection of RNA variant scans (doi:10.7554/elife.80360)

Kindly state self-cleavage for each of the entries shown.
B1: CPEB3 Ribozyme (parent)
chain: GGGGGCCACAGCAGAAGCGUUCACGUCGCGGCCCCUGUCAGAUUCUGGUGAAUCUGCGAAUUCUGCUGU

Variants of: B1
Experiment: self-cleavage, relative activity (ratio to wild type); higher = more cleavage; co-transcriptional
Form: value (number only, do not type unit).

self-cleavage in this record for GGGGGCGACAGCAGAAGCGUUCACGUCGCGGCCCCUGUCAGAAUCUGGUGAAUCUGCGAAUUCUGCUGU [C7G U43A] : 0.274

So, GGGGGCCACAGUAGAAGCGUUCACGUCGCGGCCCCUGUCAGAUUCUGGUGAAUCUGCGAGUUCUGCUGU [C12U A60G] ? Its self-cleavage was 0.716

Reported self-cleavage for GGGGGCCACAGCAGAAGCGUUCACGUCGCGGCCCCUGUCAGAUUCUGGUGAAUCUGCGAGUUCUGCCGU [A60G U67C] was 0.747

Looking up GGGGGCCACAGCAGAAGCGUUCACGUCGCGGCCCCUGUCAGAAUCUGGUGAAUCUGAGAAUUCUGCUGU [U43A C57A] , I see its self-cleavage listed as 0.271

According to the records, this variant GGGGGCCACAGCAGAAGCGUUCACGUCGCGGCCCCUGUCAGAUUCUGGUGAAUCGGCGAAUUAUGCUGU [U55G C63A] displays self-cleavage of 0.345

For this variant ( GGGGACCACAGCAGAUGCGUUCACGUCGCGGCCCCUGUCAGAUUCUGGUGAAUCUGCGAAUUCUGCUGU [G5A A16U] ), measured self-cleavage is 0.639

GET /value?item= GGGGGCCACUGCAGAAGCGUUCACCUCGCGGCCCCUGUCAGAUUCUGGUGAAUCUGCGAAUUCUGCUGU [A10U G25C] &field=self-cleavage returns 0.155

So, GGGGGCCACAGCAGAAUCGUUCACGUCGCGGCCCCUGUCAGAUUCUGGUGAAUCUCCGAAUUCUGCUGU [G17U G56C] ? Its self-cleavage was 0.219

Item: GGGGGCCACAGCUGAAGCGUUCACGUCGCGGCCCCUGUCAGAUUCAGGUGAAUCUGCGAAUUCUGCUGU [A13U U46A] | self-cleavage: 0.942

What the record says about GGGGGCCGCAGCAGAAGCGUUCACGUCGCGGCCCCUGUCAGAUUCUGGUGCAUCUGCGAAUUCUGCUGU [A8G A51C] : self-cleavage is 0.706

Sample GGGGGCGACAGCAGAAGCGUUCACGUCGCGGCCCCUGUCAGAUUCUGGUGAAGCUGCGAAUUCUGCUGU [C7G U53G] ; self-cleavage observed: 0.147

Documented self-cleavage of GGGGGCCACAGCAGAAGCGUUCACGUCGCGGCCGCGGUCAGAUUCUGGUGAAUCUGCGAAUUCUGCUGU [C34G U36G] : 0.263

Recorded result, GGGGGCCACAGCAGAACCGUUCACGUCGCGGCCCCUGUCAGAUUCUGGUGAAUCUGCGAAUUCCGCUGU [G17C U64C] , self-cleavage: 0.203

Form field self-cleavage, entry GGGGGCCACAGCAGAAGAGUUCAUGUCGCGGCCCCUGUCAGAUUCUGGUGAAUCUGCGAAUUCUGCUGU [C18A C24U] : 0.0604

The variant GCGGGCCACAGCAGAAGCGUUCACGUCGCGGCCCCUGUCAGAUUCUGGUGAAUCCGCGAAUUCUGCUGU [G2C U55C] showed self-cleavage equal to 0.0587

The recorded self-cleavage for entry GGGGGCCACAGCAGAAGCGUUCCCGUCGCGGCCCGUGUCAGAUUCUGGUGAAUCUGCGAAUUCUGCUGU [A23C C35G] equals 0.417

The variant listed as GGGGGCCACAGCAGAAGCGUUCACGUCGCGGCCCCCGUCAGUUUCUGGUGAAUCUGCGAAUUCUGCUGU [U36C A42U] shows self-cleavage equal to 0.869

Measured self-cleavage of GCGGGCCACAGCAGAAGCGUUCACGUCGCGGCCCCUGUCAGAUUCUGGUGAAUCUGCGAAAUCUGCUGU [G2C U61A] : 0.0082

Item: GGGGGUCACAGCAGAAGCGUUCACGUCGCGGCCCCUGUCAGAUUCUGGUGAAUCUCCGAAUUCUGCUGU [C6U G56C] | self-cleavage: 0.772

What the record says about GGGGGCCACAGCAGAAGCGUUCAGGUCGCGGCCCCUGUCAGAAUCUGGUGAAUCUGCGAAUUCUGCUGU [C24G U43A] : self-cleavage is 0.348

The variant listed as GGGGCCCACAGCAGAAGCUUUCACGUCGCGGCCCCUGUCAGAUUCUGGUGAAUCUGCGAAUUCUGCUGU [G5C G19U] shows self-cleavage equal to 0.121

The variant listed as GCGGGCCACAGCAGAAGCGUUCACGUCGCGGUCCCUGUCAGAUUCUGGUGAAUCUGCGAAUUCUGCUGU [G2C C32U] has a reported self-cleavage of 0.0415

The value of self-cleavage measured for the variant GGGGGCCACAGCAGAAGCGUUCACGUCGCGGCCCCUGUGAGAUUCUGGUGAAUCUGCGACUUCUGCUGU [C39G A60C] turned out to be 0.265

Briefly, self-cleavage measured for GGGGGCCACAGCAGAACCGUUCACGUCGCGGCCCCUGUCAGAUUCUGGUGAAUCUGCGAAUUCUGCUAU [G17C G68A] : 0.331

The variant listed as GGGGUCCACAGCAGAAGCGUUCACGUCGCGGCCCCUGUCAGAGUCUGGUGAAUCUGCGAAUUCUGCUGU [G5U U43G] has a reported self-cleavage of 0.161

Record GGGGGCCACAGCAGAAGCGUUCACGUCGCGGCCCCUGUGAGAUUUUGGUGAAUCUGCGAAUUCUGCUGU [C39G C45U] , field self-cleavage: 0.938

So, GGGGGUCACAGCAGAAGCGUUCACGUCGCGGCCCCUGUCAGAUUCAGGUGAAUCUGCGAAUUCUGCUGU [C6U U46A] ? Its self-cleavage was 0.944

self-cleavage for GGGGGCCACAGCAGAAGCGUUCACGUCGCGGCCCCUUUCAGAUUCCGGUGAAUCUGCGAAUUCUGCUGU [G37U U46C] is 0.292

What the record says about GGGGGCCCCAGCAGAAGCGUUCACGUCGCGGCCCCUGUCAGAUUCUGGUGAAUCGGCGAAUUCUGCUGU [A8C U55G] : self-cleavage is 0.851

// self-cleavage value for GGGGGCCACAGUAGAAGCGUUCACGUCACGGCCCCUGUCAGAUUCUGGUGAAUCUGCGAAUUCUGCUGU [C12U G28A] : 0.17

// self-cleavage lookup, variant = GGGGGCCACAGCAGAAGCGGUCACGUCGCGGCCCCUGUCAGAUUCUGGUGAAGCUGCGAAUUCUGCUGU [U20G U53G] , result: 0.166

Form: variant = GGGGGCCACAGCAGUAGCGUUCACGUCGCGGCCCCUGUCAGAUUCUGGUGAAUCUGCGAAUUUUGCUGU [A15U C63U] ; self-cleavage = 0.794

self-cleavage recorded for this variant, GGGGGCCACAGCAGAAGCGUUCACGUCGCGGCCCCUGUCAGAUUCUGGUGAAUUUGCGAAUUAUGCUGU [C54U C63A] , is 0.797

The value of self-cleavage measured for the variant GGGGGGCACAGCAGAAGCGUUCACGUCGCGGCCCCUGUCAGAUUCUGGUGAGUCUGCGAAUUCUGCUGU [C6G A52G] turned out to be 0.343

Value of measured self-cleavage for the entry GGGGGCCACAGCAGAAGCGUUCACGUCGCGUCCCCUGUCAGAUUCUGGUGAAUCUGCGAAUUCUGCUGU [G31U] : 0.782

Entry GGGGGCCCCCGCAGAAGCGUUCACGUCGCGGCCCCUGUCAGAUUCUGGUGAAUCUGCGAAUUCUGCUGU [A8C A10C] , self-cleavage reported as 0.975

Recorded self-cleavage (variant GGGGCCCACAGCAGAAGCGUUCACGUCGCGGCCCCUGUCAGAUUCUGGUGUAUCUGCGAAUUCUGCUGU [G5C A51U] ): 0.269

Measured self-cleavage, GGGGGCCACAGCGGAAGCGUUCACGUCGCGGCCCCUGUUAGAUUCUGGUGAAUCUGCGAAUUCUGCUGU [A13G C39U] : 0.8

self-cleavage recorded for this variant, GGGGGCCACAACAGAAGCGUUCACGUCGCCGCCCCUGUCAGAUUCUGGUGAAUCUGCGAAUUCUGCUGU [G11A G30C] , is 0.672

GGGGGCUACAGCAGAAACGUUCACGUCGCGGCCCCUGUCAGAUUCUGGUGAAUCUGCGAAUUCUGCUGU [C7U G17A] yielded self-cleavage of 0.175

The variant GGGGGCCACAGCAGAAGCGUUCACGUCGCGGCCCCUGUCAGAUUCUGGUGAAUCUGCCCAUUCUGCUGU [G58C A59C] showed self-cleavage equal to 0.636

// self-cleavage lookup, variant = GGGGUCCACAGCAGAAGCGUUCACGUCGCGGCCCCUGUCAGAUUCUGGUGAAUCUGCGAAUUCUUCUGU [G5U G65U] , result: 0.0885

# self-cleavage (variant: GGGGGCCACAGCAAAAGCGUUCACGUCGCGGCCCCUGUCAGAUUAUGGUGAAUCUGCGAAUUCUGCUGU [G14A C45A] ) is 0.612

For UGGGGCCACAGCAGAAGCGUUCACGUCGCGGCCCCUGUCAGAUUCUGGCGAAUCUGCGAAUUCUGCUGU [G1U U49C] the variant record lists self-cleavage as 0.0511

Per the record, GGGGGCCACAGCAGAAGCGUUCACGUCGCGGCCCCUGUCAAAUUCUGGUGAGUCUGCGAAUUCUGCUGU [G41A A52G] has self-cleavage of 0.716

So for GGGGGCCACAGCAGAAGCGUUCACGUCGCGGCCCCGGUCAGAUUCUGGUGAAUCAGCGAAUUCUGCUGU [U36G U55A] , the logged self-cleavage turned out to be 0.238
